assay: Phase 1 multiple escalating dose study, QD intravenous infusion for 14 days, safety and pharmacokinetics; format: in vivo, human; settings: human, whole blood; 200-800 μg QD IV for 14 days; read-out: CL, range of means over the studied regimens
QUANTITY_NAME: clearance

>  <GIVEN_SMILES>
CO[C@H]1C[C@@H]2CC[C@@H](C)[C@@](O)(O2)C(=O)C(=O)N2CCCC[C@H]2C(=O)O[C@H]([C@H](C)C[C@@H]2CC[C@H](n3cnnn3)[C@H](OC)C2)CC(=O)[C@H](C)/C=C(\C)[C@@H](O)[C@@H](OC)C(=O)[C@H](C)C[C@H](C)/C=C/C=C/C=C/1C

>  <QUANTITY_NAME>
clearance

>  <EXPERIMENTAL_VALUE>
66.7 to 76.7 mL/min

$$$$
